Numbers sourced from patent US20260242478A1.

molecular target: T1, Anti-PSMA Fab (SEQ ID NOs: 19, 20); assay: phage binding ELISA; biotinylated anti-PSMA Fab on neutravidin plate, bound phage detected with anti-M13-HRP
T1 construct: Biotinylated PSMA Fab captured on neutravidin coated plates in the phage ELISA; also called 006 PSMA Fab
Please go through the items and note down their Anti-PSMA Fab (SEQ ID NOs: 19, 20) signal.

Binder | Observed result
MEKLCKPAWMCSML [Phage-1868] | 2.11

Could you tell me Anti-PSMA Fab (SEQ ID NOs: 19, 20) signal for each of these binders? They are listed below.
1. DFRWCIPEWMCTGY [Phage-1863]
2. AVKLCIPEWMCVGQ [Phage-1861]
3. WENRCTPAWMCKGF [Phage-1867]
4. SPKWCTPEWMCSHL [Phage-1874]
5. EFIWCRPAWMCMDV [Phage-1870]
6. SIKMCIPQWMCVMQ [Phage-1869]
7. WEHWCRPAWMCESL [Phage-1866]

Key:
[2.14, 2.15, 2.12, 2.09, 2.11, 2.11, 2.12]
